A collection of compounds and their measured OH radical inhibitory concentration
Experiment: Inhibition of ovalbumin (Ova) oxidative degradation by OH radical
Conditions: concentration that completely inhibits the proteolytic action of 10 mM OH•
Description: ClO•, OH•, and NO3• were prepared as three typical active oxygen species produced in the body. […] After the reaction, sodium dodecylsulfate-polyacrylamide gel electrophoresis (SDS-PAGE) was performed on each sample, the gel was stained with Coomassie blue R250, and the Ova degradation inhibition rate was calculated from the densitometer reading. […]
Use µM as the unit, but write only the number.

Solved entries:
>>> df
                              sample_smiles                      measured_metric  units_of_measure  experimental_value
0  Cc1c(C)c2c(c(C)c1O)CC[C@@](C)(CCC[C@H](C)CCC[C@H](C)CCCC(C)C)O2  OH radical inhibitory concentration                µM                2500
1                 O=C(O)/C=C/c1ccc(O)c(O)c1  OH radical inhibitory concentration                µM                 4.0
2  CC1=C(/C=C/C(C)=C/C=C/C(C)=C/C=C/C=C(C)/C=C/C=C(C)/C=C/C2=C(C)C(=O)[C@@H](O)CC2(C)C)C(C)(C)C[C@H](O)C1=O  OH radical inhibitory concentration                µM                 0.5
3  O=c1c(O)c(-c2ccc(O)c(O)c2)oc2cc(O)cc(O)c12  OH radical inhibitory concentration                µM                 2.5

Next item in the queue.
Ask: Fill blank: measured OH radical inhibitory concentration of the compound COc1cc(/C=C/C(=O)O)ccc1O is ____.
Result: 2.5

* * *

test: Inhibition of ovalbumin (Ova) oxidative degradation by OH radical; conditions: concentration that completely inhibits the proteolytic action of 10 mM OH•
# OH radical inhibitory concentration listing for each entry below
Record the value in µM, omitting the unit from your answer.

Below, each entry is followed by its recorded OH radical inhibitory concentration result.
compound	OH radical inhibitory concentration, µM
Oc1cc(O)c2c(c1)OC(c1ccc(O)c(O)c1)C(O)C2 (stereo not drawn)	2.5
CC1=C(/C=C/C(C)=C/C=C/C(C)=C/C=C/C=C(C)/C=C/C=C(C)/C=C/C2=C(C)CCCC2(C)C)C(C)(C)CCC1	0.5

Kindly review the next compound as well.
Ask: Reported OH radical inhibitory concentration for O=C(O[C@@H]1Cc2c(O)cc(O)cc2O[C@@H]1c1cc(O)c(O)c(O)c1)c1cc(O)c(O)c(O)c1 [Epigallocatechin gallate, epigallocatechin gallate] : what is it?
Result: 2.5
